SYSTEM: Phosphatidylinositol 4,5-bisphosphate 3-kinase catalytic subunit gamma isoform (Homo sapiens, UniProt P48736)
Sequence (P48736 whole entry, canonical isoform): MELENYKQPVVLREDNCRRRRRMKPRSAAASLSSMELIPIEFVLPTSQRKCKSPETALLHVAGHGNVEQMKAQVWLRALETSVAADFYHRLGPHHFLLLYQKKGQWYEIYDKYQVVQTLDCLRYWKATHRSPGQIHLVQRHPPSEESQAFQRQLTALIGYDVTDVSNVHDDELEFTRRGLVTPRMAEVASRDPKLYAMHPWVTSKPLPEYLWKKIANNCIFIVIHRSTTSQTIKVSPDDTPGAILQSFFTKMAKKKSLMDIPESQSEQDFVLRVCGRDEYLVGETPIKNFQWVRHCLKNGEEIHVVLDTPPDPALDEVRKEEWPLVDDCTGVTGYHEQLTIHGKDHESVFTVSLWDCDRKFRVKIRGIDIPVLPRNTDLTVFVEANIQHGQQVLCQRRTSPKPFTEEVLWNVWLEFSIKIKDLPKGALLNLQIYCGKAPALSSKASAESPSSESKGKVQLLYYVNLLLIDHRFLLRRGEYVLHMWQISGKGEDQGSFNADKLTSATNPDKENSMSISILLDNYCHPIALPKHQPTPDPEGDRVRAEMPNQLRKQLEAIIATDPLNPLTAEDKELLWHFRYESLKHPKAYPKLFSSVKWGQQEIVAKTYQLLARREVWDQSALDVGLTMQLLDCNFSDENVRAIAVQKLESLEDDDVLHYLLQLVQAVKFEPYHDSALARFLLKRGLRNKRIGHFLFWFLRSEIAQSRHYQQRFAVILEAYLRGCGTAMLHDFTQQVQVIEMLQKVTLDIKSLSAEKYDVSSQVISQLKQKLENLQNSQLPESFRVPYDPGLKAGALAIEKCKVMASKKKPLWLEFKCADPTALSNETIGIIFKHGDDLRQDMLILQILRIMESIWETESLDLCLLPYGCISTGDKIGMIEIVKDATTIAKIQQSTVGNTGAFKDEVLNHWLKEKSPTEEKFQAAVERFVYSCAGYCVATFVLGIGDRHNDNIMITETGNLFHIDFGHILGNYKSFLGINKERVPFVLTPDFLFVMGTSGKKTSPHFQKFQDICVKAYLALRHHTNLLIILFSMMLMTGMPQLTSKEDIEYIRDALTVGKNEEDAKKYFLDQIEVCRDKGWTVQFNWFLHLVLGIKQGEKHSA
METHOD_DESCRIPTION: Determination of PI3K Activity
RUN_PARAMETERS: pH 7.4; 22 °C
PROPERTY_NAME: IC50 (µM)
Numbers only, in µM.

In: Write down IC50 measured for item `COc1cccc(-c2nc3nc(N)nc(N)c3nc2-c2cccc(OC)c2)c1`
Out: 12.6
